system: Septoria nodorum; experiment: Fungicidal test, Septoria nodorum (LEPTNO) on wheat, PRCO; assay type: in vivo; conditions: METHOD 2 (unbanded)
ENDPOINT: LEPTNO 1 d Prot/Foir PRCO

Past entries and their recorded results:
| MOLECULE | LEPTNO 1 d Prot/Foir PRCO |
| --- | --- |
| Cc1nsc(NC(=O)Cc2ccc3oc(-c4c(Cl)cc(C(F)(F)F)cc4Cl)nc3c2)c1Cl [244(A3)] | −2 |
| Cc1nc2ccc(CC(=O)Nc3snc(C)c3Cl)cc2o1 [2(A23)] | 53 |
| CCC(Cl)c1nc2cc(CC(=O)Nc3snc(C)c3Cl)ccc2o1 (racemic) [95(A3)] | 8 |
| Cc1nsc(NC(=O)Cc2ccc3oc(-c4ccccc4Cl)nc3c2)c1Cl [253(A3)] | 8 |

# input For CCCCc1nc2cc(CC(=O)Nc3snc(C)c3Cl)ccc2o1 [5(A3)] , what is its reported LEPTNO 1 d Prot/Foir PRCO?
# output 30

# input For CCc1nc2cc(CC(=O)Nc3snc(C)c3Cl)ccc2o1 [3(A3)] , what is its reported LEPTNO 1 d Prot/Foir PRCO?
# output 33

# input For Cc1nsc(NC(=O)Cc2ccc3oc(C4CC4)nc3c2)c1Cl [21(A3)] , what is its reported LEPTNO 1 d Prot/Foir PRCO?
# output 14

# input For Cc1nsc(NC(=O)Cc2ccc3oc(C=Cc4ccc([N+](=O)[O-])cc4)nc3c2)c1Cl [63(A3)] , what is its reported LEPTNO 1 d Prot/Foir PRCO?
# output 2

# input For Cc1nsc(NC(=O)Cc2ccc3oc(C(c4ccccc4)c4ccccc4)nc3c2)c1Cl [246(A3)] , what is its reported LEPTNO 1 d Prot/Foir PRCO?
# output 27

# input For Cc1nsc(NC(=O)Cc2ccc3oc(-c4cccs4)nc3c2)c1Cl [330(A3)] , what is its reported LEPTNO 1 d Prot/Foir PRCO?
# output 37

# input For Cc1cc(NC(=O)Cc2ccc3oc(CC(C)(C)C)nc3c2)sn1 [15(A1)] , what is its reported LEPTNO 1 d Prot/Foir PRCO?
# output 4

# input For CC=C(C)c1nc2cc(CC(=O)Nc3snc(C)c3Cl)ccc2o1 [47(A3)] , what is its reported LEPTNO 1 d Prot/Foir PRCO?
# output 63

###

tested on: Musca domestica; conditions: 500 ppm by weight; knockdown assessed 15 minutes after treatment
The reader will find reported MUSCDO AC = Musca domestica (knockdown), score values listed item by item below.

Past entries and their recorded results:
| MOLECULE | MEASURED |
| --- | --- |
| CCCc1nc2cc(CC(=O)N(COC)c3snc(C)c3Cl)ccc2o1 [4(K3)] | 0 (0 indicates less than 40% mortality) |
| C=CCN(C(=O)Cc1ccc2oc(C)nc2c1)c1snc(C)c1Cl [2(E3)] | 0 (0 indicates less than 40% mortality) |
| Cc1nsc(NC(=O)Cc2ccc3oc(-c4ccc(C(C)(C)C)cc4)nc3c2)c1Cl [252(A3)] | 0 (0 indicates less than 40% mortality) |
| Cc1cc(NC(=O)Cc2ccc3oc(CC(C)(C)C)nc3c2)sn1 [15(A1)] | 5 (5 indicates 40-79% mortality) |
| CCCc1nc2cc(CC(=O)N(COCCOC)c3snc(C)c3Cl)ccc2o1 [4(M3)] | 0 (0 indicates less than 40% mortality) |
| C#CCN(C(=O)Cc1ccc2oc(C)nc2c1)c1snc(C)c1Cl [2(F3)] | 0 (0 indicates less than 40% mortality) |
| Cc1nsc(NC(=O)Cc2ccc3oc(C(C)(C)C)nc3c2)c1Cl [9(A3)] | 9 (9 indicates 80-100% mortality) |
| Cc1nc2ccc(CC(=O)Nc3snc(C)c3Cl)cc2o1 [2(A23)] | 0 (0 indicates less than 40% mortality) |
| Cc1nsc(NC(=O)Cc2ccc3oc(O)nc3c2)c1Cl [351(A3)] | 0 (0 indicates less than 40% mortality) |
| Cc1nsc(NC(=O)Cc2ccc3oc(CC#N)nc3c2)c1Cl [113(A3)] | 0 (0 indicates less than 40% mortality) |

Consider the record given below.
# input Fill in the recorded MUSCDO AC = Musca domestica (knockdown), score for this molecule, with Musca domestica as test system: CCN(C(=O)Cc1ccc2oc(CC(C)(C)C)nc2c1)c1snc(C)c1Cl [15(C3)]
# output 9 (9 indicates 80-100% mortality)

###

system: Septoria nodorum; experiment: Fungicidal test, Septoria nodorum (LEPTNO) on wheat, PRCO; type: in vivo; conditions: METHOD 2 (unbanded)
Label Satisfied when LEPTNO 1 d Prot/Foir PRCO is at or above 50; anything below gets Not satisfied.

| SUBSTANCE SMILES | ASSIGNED CATEGORY |
| --- | --- |
| Cc1nsc(NC(=O)Cc2ccc3oc(CC4CCCC4)nc3c2)c1Cl | Not satisfied |
| Cc1nsc(NC(=O)Cc2ccc3oc(COc4ccccc4)nc3c2)c1Cl | Not satisfied |
| Cc1nsc(NC(=O)Cc2ccc3oc(C(C)(C)C)nc3c2)c1Cl | Satisfied |
| COc1nc2cc(CC(=O)Nc3snc(C)c3Cl)ccc2o1 | Not satisfied |
| Cc1nsc(NC(=O)Cc2ccc3oc(CF)nc3c2)c1Cl | Satisfied |
| COc1ccccc1-c1nc2cc(CC(=O)Nc3snc(C)c3Cl)ccc2o1 | Not satisfied |

Now for a further compound.
# input Would you say Cc1nsc(NC(=O)Cc2ccc3nc(CC(C)(C)C)oc3c2)c1Cl shows LEPTNO 1 d Prot/Foir PRCO at minimum 50?
# output Satisfied

###

tested on: Venturia inaequalis; experiment: Fungicidal test, Venturia inaequalis (VENTIN) on apples, PRCO; assay type: in vivo; conditions: METHOD 2 (unbanded)
The reader will find reported VENTIN 1 d Prot/Foir PRCO values listed item by item below.
Number only, please.

Past entries and their recorded results:
| MOLECULE | MEASURED |
| --- | --- |
| COC(=O)CSc1nc2cc(CC(=O)Nc3snc(C)c3Cl)ccc2o1 | 10 |
| COc1ccccc1-c1nc2cc(CC(=O)Nc3snc(C)c3Cl)ccc2o1 | −6 |
| Cc1nsc(NC(=O)Cc2ccc3oc(CC(C)(C)C)nc3c2)c1C#N | 3 |
| Cc1nsc(NC(=O)Cc2ccc3oc(CC#N)nc3c2)c1Cl | 8 |
| Cc1nsc(NC(=O)Cc2ccc3oc(CSc4ccccc4)nc3c2)c1Cl | 50 |

# input For CCCCc1nc2cc(CC(=O)Nc3snc(C)c3Cl)ccc2o1 , what is its reported VENTIN 1 d Prot/Foir PRCO?
# output −10

# input For CCc1nsc(NC(=O)Cc2ccc3oc(C)nc3c2)c1Cl , what is its reported VENTIN 1 d Prot/Foir PRCO?
# output 8

# input For Cc1nsc(NC(=O)Cc2ccc3oc(C(C)C#N)nc3c2)c1Cl (racemic) , what is its reported VENTIN 1 d Prot/Foir PRCO?
# output 15

###

The reader will find reported LEPTNO 1 d Prot/Foir PRCO values listed item by item below.
tested on: Septoria nodorum; assay: Fungicidal test, Septoria nodorum (LEPTNO) on wheat, PRCO; assay type: in vivo; settings: METHOD 2 (unbanded)

Past entries and their recorded results:
| COMPOUND | MEASURED |
| --- | --- |
| CC(C)=Cc1nc2cc(CC(=O)Nc3snc(C)c3Cl)ccc2o1 [46(A3)] | 88 |
| Cc1nc2cc(CC(=O)Nc3snc(C)c3Cl)ccc2s1 [2(A13)] | 62 |
| CCCc1nc2ccc(CC(=O)Nc3snc(C)c3Cl)cc2o1 [4(A23)] | 63 |
| CSCCc1nc2cc(CC(=O)Nc3snc(C)c3Cl)ccc2o1 [172(A3)] | 10 |

# input Fill in the recorded LEPTNO 1 d Prot/Foir PRCO for this compound, with Septoria nodorum as test system: Cc1nsc(NC(=O)Cc2ccc3oc(-c4ccncc4)nc3c2)c1Cl [339(A3)]
# output 0

###

system: Meloidogyne incognita; experiment: Nematode test, J2 infective juveniles of Meloidogyne incognita, mortality; conditions: 12.5 ppm; J2 infective juveniles suspended in solution; mortality after three days
The reader will find reported MELGIN = Meloidogyne incognita, grading of mortality (score) values listed item by item below.

Past entries and their recorded results:
| COMPOUND | MEASURED |
| --- | --- |
| CCCc1nc2cc(CC(=O)Nc3snc(C)c3Cl)ccc2o1 [4(A3)] | 9 (9 indicates 80-100% mortality) |
| Cc1nsc(NC(=O)Cc2ccc3oc(-c4ccc(Cl)cc4Cl)nc3c2)c1Cl [257(A3)] | 5 (5 indicates 40-79% mortality) |
| C=CCN(C(=O)Cc1ccc2oc(C)nc2c1)c1snc(C)c1Cl [2(E3)] | 0 (0 indicates less than 40% mortality) |
| Cc1nsc(NC(=O)Cc2ccc3oc(COc4ccccc4)nc3c2)c1Cl [140(A3)] | 0 (0 indicates less than 40% mortality) |
| Cc1nsc(NC(=O)Cc2ccc3oc(CC(C)(C)C)nc3c2)c1C#N [15(A5)] | 0 (0 indicates less than 40% mortality) |
| CCC(CC)c1nc2cc(CC(=O)Nc3snc(C)c3Cl)ccc2o1 [13(A3)] | 0 (0 indicates less than 40% mortality) |

# input For C#CCN(C(=O)Cc1ccc2oc(CCC)nc2c1)c1snc(C)c1Cl [4(F3)] , what is its reported MELGIN = Meloidogyne incognita, grading of mortality (score)?
# output 0 (0 indicates less than 40% mortality)

# input For Cc1nc2ccc(CC(=O)Nc3snc(C)c3Cl)cc2[nH]1 [2(A43)] , what is its reported MELGIN = Meloidogyne incognita, grading of mortality (score)?
# output 5 (5 indicates 40-79% mortality)

# input For Cc1nc2cc(CC(=O)Nc3snc(C)c3Cl)ccc2o1 [2(A3)] , what is its reported MELGIN = Meloidogyne incognita, grading of mortality (score)?
# output 5 (5 indicates 40-79% mortality)

# input For Cc1nsc(NC(=O)Cc2ccc3oc(C(F)(F)F)nc3c2)c1Cl [75(A3)] , what is its reported MELGIN = Meloidogyne incognita, grading of mortality (score)?
# output 0 (0 indicates less than 40% mortality)

# input For COCc1nc2cc(CC(=O)Nc3snc(C)c3Cl)ccc2o1 [130(A3)] , what is its reported MELGIN = Meloidogyne incognita, grading of mortality (score)?
# output 0 (0 indicates less than 40% mortality)

# input For CCCc1nc2cc(CC(=O)N(COC)c3snc(C)c3Cl)ccc2o1 [4(K3)] , what is its reported MELGIN = Meloidogyne incognita, grading of mortality (score)?
# output 0 (0 indicates less than 40% mortality)

# input For Cc1nsc(NC(=O)Cc2ccc3oc(C(C)C#N)nc3c2)c1Cl (racemic) [115(A3)] , what is its reported MELGIN = Meloidogyne incognita, grading of mortality (score)?
# output 0 (0 indicates less than 40% mortality)

# input For Cc1nsc(NC(=O)Cc2ccc3oc(CC(C)(C)C)nc3c2)c1Cl [Compound 15(A3)] , what is its reported MELGIN = Meloidogyne incognita, grading of mortality (score)?
# output 0 (0 indicates less than 40% mortality)

# input For Cc1nsc(NC(=O)Cc2ccc3oc(-c4ccccc4Cl)nc3c2)c1Cl [253(A3)] , what is its reported MELGIN = Meloidogyne incognita, grading of mortality (score)?
# output 0 (0 indicates less than 40% mortality)

# input For Cc1nsc(NC(=O)Cc2ccc3oc(-c4ccc(C(C)(C)C)cc4)nc3c2)c1Cl [252(A3)] , what is its reported MELGIN = Meloidogyne incognita, grading of mortality (score)?
# output 0 (0 indicates less than 40% mortality)

# input For Cc1nsc(NC(=O)Cc2ccc3nc(C(C)(C)C)[nH]c3c2)c1Cl [9(A43)] , what is its reported MELGIN = Meloidogyne incognita, grading of mortality (score)?
# output 0 (0 indicates less than 40% mortality)

# input For CC=C(C)c1nc2cc(CC(=O)Nc3snc(C)c3Cl)ccc2o1 [47(A3)] , what is its reported MELGIN = Meloidogyne incognita, grading of mortality (score)?
# output 0 (0 indicates less than 40% mortality)

# input For Cc1nsc(NC(=O)Cc2ccc3oc(C(c4ccccc4)c4ccccc4)nc3c2)c1Cl [246(A3)] , what is its reported MELGIN = Meloidogyne incognita, grading of mortality (score)?
# output 0 (0 indicates less than 40% mortality)

# input For Cc1nsc(N(C(=O)Cc2ccc3oc(CC(C)(C)C)nc3c2)C(C)C)c1Cl [15(N3)] , what is its reported MELGIN = Meloidogyne incognita, grading of mortality (score)?
# output 0 (0 indicates less than 40% mortality)

# input For CCOc1nc2cc(CC(=O)Nc3snc(C)c3Cl)ccc2o1 [204(A3)] , what is its reported MELGIN = Meloidogyne incognita, grading of mortality (score)?
# output 0 (0 indicates less than 40% mortality)

# input For Cc1nsc(N(CC(F)(F)F)C(=O)Cc2ccc3oc(CC(C)(C)C)nc3c2)c1Cl [15(H3)] , what is its reported MELGIN = Meloidogyne incognita, grading of mortality (score)?
# output 0 (0 indicates less than 40% mortality)

# input For Cc1nc2cc(CC(=O)Nc3snc(C)c3Cl)ccc2s1 [2(A13)] , what is its reported MELGIN = Meloidogyne incognita, grading of mortality (score)?
# output 5 (5 indicates 40-79% mortality)

# input For CCN(C(=O)Cc1ccc2oc(CC(C)(C)C)nc2c1)c1snc(C)c1Cl [15(C3)] , what is its reported MELGIN = Meloidogyne incognita, grading of mortality (score)?
# output 0 (0 indicates less than 40% mortality)

# input For Cc1nsc(NC(=O)Cc2ccc3oc(Cc4c(F)c(F)c(F)c(F)c4F)nc3c2)c1Cl [239(A3)] , what is its reported MELGIN = Meloidogyne incognita, grading of mortality (score)?
# output 0 (0 indicates less than 40% mortality)

# input For CCCc1nc2cc(CC(=O)N(COCC)c3snc(C)c3Cl)ccc2o1 [4(L3)] , what is its reported MELGIN = Meloidogyne incognita, grading of mortality (score)?
# output 0 (0 indicates less than 40% mortality)

# input For COCCOCN(C(=O)Cc1ccc2oc(CC(C)(C)C)nc2c1)c1snc(C)c1Cl [15(M3)] , what is its reported MELGIN = Meloidogyne incognita, grading of mortality (score)?
# output 0 (0 indicates less than 40% mortality)
